Source of measurements: patent US12649778

target: Peptide 1593 (…) (Mycobacterium tuberculosis); test: indirect ELISA, supernatant on 1 ug/ml coated peptide
outcome_measure: OD450, supernatant 1:2,430 (OD450)
# value in OD450; strip the unit string

binder: Antibody 91B4-1 (antibody, V domains shown) VH: QSLEESGGRLVSPGGSLTLTCTVSGIDLSRFGVSWVRQAPGKGLEWTGYIHTDGNVYYASWAKGRFTISKTSTTVDLKMTSLTTEDTATYFCARGGYAADLWGQAALVTVSS VL: DPMLTQTPSSVSAAVGGTVTISCQSSESVYKNYLAWYQQKLGQPPKLLIGATSTLVSGVPSRFKGSGSRTQFSLTISDLECDDAATYYCVGGYTGKNVFGGGTEVVVK
outcome_measure: OD450, supernatant 1:2,430
reported_result: 0.618

binder: Antibody 125D9-1 (antibody, V domains shown) VH: QPVEESGGRLVTPGTPLTLTCTVSGFSLSSYDMTWVRQAPGKGLEYIGVVAYGGATYYASWAKGRFTISKTSTTVDLKITSPTTEDTATYFCARGDSDGSSELFNLWGQGTLVTVSS VL: AVLTQTPSPVSAAVGGTVTINCQSSKSVYNNNCLSWYQQKQGQPPKLLIYQASTPASGVPSRFKGSGSGTQFTLTINDVQCDDAATYYCAGCFASTSDMYGFGGGTGVVVK
outcome_measure: OD450, supernatant 1:2,430
reported_result: 2.85

Report OD450, supernatant 1:2,430, nothing else, for this binder: Antibody 135A6-1 (antibody, V domains shown) VH: QSVEESGGRLVTPGTPLTLTCTVSGFSLGNYDISWVRQAPGKGLEWIGVIATVGDTYYASWAKGRFTISKTSATVDLKITSPTTEDTATYFCVRGDSPSTNEIFGLWGQGTLVTVSS VL: AVLTQTPSPVSAAVGGTLTINCQSSRTVYNNICLSWYQQKLGQPPKLLIYGASTLTSGVPSRFRGSGSGTQFTLTINDVQCGDAATYYCAGCFPSTSDMYGFGGGTEVVVK
1.69

Report OD450, supernatant 1:2,430, nothing else, for this binder: Antibody 67G8-2 (antibody, V domains shown) VH: QSVEESGGRLVTPGTPLTLTCTVSGFSLGNYDGHWVRQTPEKGLEWIGVIATIGDTYYASWAKGRFSISKTSATVELRITSPTTEDTATYFCVRGDSRTSNEIFNLWGQGTLVTVSS VL: AVLTQTPSPVSAAVGGTLTINCQSTRSVHNNICLSWYQQKPGQPPKLLIYSASTLASGVPSRFKGSGSGTQFTLAINDVQCGDAATYYCAGCFPSKSDMYGFGGGTEVVVK
0.616
